assay.info: Total clearance in monkey at 0.30 mg/kg, iv by cassette assay
Assay type: ADME, organism-based, Macaca mulatta
Design: dose 0.3 mg/kg, route intravenous
test.context: rhesus monkey, in vivo, 0.3 mg/kg
endpoint.name: clearance

Please supply the value of reported clearance for the item CCCOc1cc(-c2ccc(C[C@@H](C)NC[C@H](O)c3cccnc3)cc2)ccc1C(=O)O
47 mL/min/kg

====

assay.info: Cmax in monkey at 0.27 mg/kg, po by cassette assay
Format: ADME, organism-based, Macaca mulatta
Design: dose 0.27 mg/kg, route oral
test.context: rhesus monkey, in vivo
endpoint.name: Cmax (ng/mL)
Respond with the bare value in ng/mL.

Please supply the value of reported Cmax for the item CC(C)Oc1cc(-c2ccc(CCNC[C@H](O)c3cccnc3)cc2)ccc1C(=O)O
11

====

assay.info: AUC (0 to 24 hrs) in monkey at 0.32 mg/kg, po by cassette assay
Type: ADME, organism-based, Macaca mulatta
Parameters: time < 24 hr, dose 0.32 mg/kg, route oral
test.context: rhesus monkey, plasma
For each of the compounds below, state its AUC(0-t) at 24 h.
Reply with the number, then its unit.

Please supply the value of reported AUC(0-t) at 24 h for the item CC(C)Oc1cc(-c2ccc(CCN[C@@H](C)[C@H](O)c3ccccc3)cc2)ccc1C(=O)O
1800 ng·h/mL

Please supply the value of reported AUC(0-t) at 24 h for the item CC(C)Cc1cc(-c2ccc(CCNC[C@H](O)c3ccc(N)nc3)cc2)ccc1C(=O)O
90.8 ng·h/mL

Please supply the value of reported AUC(0-t) at 24 h for the item CC(C)Oc1cc(-c2ccc(C[C@@H](C)NC[C@H](O)c3ccccc3)cc2)ccc1C(=O)O
1300 ng·h/mL

====

assay.info: Bioavailability in monkey at 0.32 mg/kg, po by cassette assay
Format: ADME, organism-based, Macaca mulatta
test.context: rhesus monkey, in vivo
For each of the compounds below, state its bioavailability.
Reply with the number, then its unit.

Please supply the value of reported bioavailability for the item CC(C)Oc1cc(-c2ccc(CCN[C@@H](C)[C@H](O)c3ccccc3)cc2)ccc1C(=O)O
88.2%

Please supply the value of reported bioavailability for the item CC(C)Cc1cc(-c2ccc(CCNC[C@H](O)c3ccc(N)nc3)cc2)ccc1C(=O)O
48.6%

Please supply the value of reported bioavailability for the item CC(C)Oc1cc(-c2ccc(C[C@@H](C)NC[C@H](O)c3ccccc3)cc2)ccc1C(=O)O
52.8%

====

assay.info: Total clearance in Beagle dog at 0.1 mg/kg, iv by cassette assay
Type: ADME, organism-based, Canis lupus familiaris
Set-up: dose 0.1 mg/kg, route intravenous
test.context: in vivo
endpoint.name: clearance (mL/min/kg)
Respond with the bare value in mL/min/kg.

Please supply the value of reported clearance for the item CC(C)COc1cc(-c2ccc(C[C@@H](C)NC[C@H](O)c3ccccc3)cc2)ccc1C(=O)O
39

Please supply the value of reported clearance for the item C[C@H](Cc1ccc(-c2ccc(C(=O)O)c(OC3CCCCC3)c2)cc1)NC[C@H](O)c1ccccc1
68.9

Please supply the value of reported clearance for the item CCOc1cc(-c2ccc(C[C@@H](C)NC[C@H](O)c3ccccc3)cc2)ccc1C(=O)O
3.5

Please supply the value of reported clearance for the item CC(C)Oc1cc(-c2ccc(C[C@@H](C)NC[C@H](O)c3ccccc3)cc2)ccc1C(=O)O
6.5
